For each entry below, report its EC50 value.
- STUDY_SYSTEM: SARS-CoV-2 RBD (SARS-CoV-2, UniProt P0DTC2)
- TEST_PROTOCOL: ELISA
Return type: number; implicit unit ng/mL.

Query C115 (antibody, V domains shown) VH: QVQLVESGGGLIKPGRSLRLSCTASGFTFGDYAMTWFRQAPGKGLEWVGFIRSKAYGGTTGYAASVKYRFTISRDDSKSIAYLQMDSLKTEDTAVYYCTRWDGWSQHDYWGQGTLVTVSS VL: DIVMTQSPLSLSVTPGEPASISCRSSQSLLHSNGNNYFDWYLQKPGQSPQLLIYLGSNRASGVPDRFSGSGSGTDFTLKISRVEAEDVGVYYCMQVLQIPYTFGQGTKLEIK yields EC50 of 3.4

# EC50 of C017 (antibody, V domains shown) VH: EVQLVESGGGLVQPGRSLRLSCAASGFTFDDYAMHWVRQAPGKGLEWVSGISWNSGTIGYADSVKGRFTISRDNAKNSLYLQMNSLRAEDTAFYYCAKAGVRGIAAAGPDLNFDHWGQGTLVTVSS VL: EIVLTQSPATLSLSPGERATLSCRASQSVSSYLAWYQQKPGQAPRLLIYDASNRATGIPARFSGSGSGTDFTLTISSLEPEDFAVYYCQQRITFGQGTRLEIK = 1.63

The recorded EC50 for entry C151 (antibody, V domains shown) VH: EVQLVESGGGLVKPGGSLRLSCAASGFTFSSYNMNWVRQAPGKGLEWVSCISSSSSYIYYADSVKGRFTISRDNAKNSLYLQMNSLRAEDTAVYYCARERGYDGGKTPPFLGGQGTLVTVSS VL: NFMLTQPHSVSESPGKTVTISCTGSSGSIASNYVQWYQQRPGSAPTTVIYEDNQRPSGVPDRFSGSIDSSSNSASLTISGLKTEDEADYYCQSYDSSNYWVFGGGTKLTVL equals 4.3

Per the records, this binder ( C201 (antibody, V domains shown) VH: EVQLVESGGGLVQPGRSLRLSCAASGFTFDDYAMHWVRQAPGKGLEWVSGISWNSGSIGYADSVKGRFTISRDNAKNSLYLQMNSLRAEDTALYYCVKGVEYSSSSNFDYWGQGTLVTVSS VL: IRMTQSPSSVSASVGDRVTITCRASQGISSWLAWYQQKPGKAPKLLIYVESSLQSGVPSRFSGSGSGTDFTLTISSLQPEDFATYYCQQANSFPLTFGGGTKVEIK ) has EC50 equal to 2.98

For reference, reported EC50 for C118 (antibody, V domains shown) VH: QVQLVESGGGVVQPGRSLRLSCAASGFTFSNYAMHWVRQAPGKGLEWVAVISYDGSNKYYADSVKGRFTISRDNSKNTLYLQMNSLRAEDTAIYYCASGYTGYDYFVRGDYYGLDVWGQGTTVTVSS VL: QPVLTQSPSASASLGASVKLTCTLSSGHSSYAIAWHQQQPEKGPRYLMKLNTDGSHSKGDGIPDRFSGSSSGAERYLTISSLQSEDEADYYCQTWGTGILVFGGGTKLTVL stands at 3.45

For this binder ( C103 (antibody, V domains shown) VH: QVQLQQWGAGLLKPSETLSLTCAVSGGSLSGFYWTWIRQPPGKGLEWIGETNHFGSTGYKPSLKSRVTISVDMSRNQFSLKVTSVTAADTAVYYCARKPLLYSDFSPGAFDIWGQGTMVTVSS VL: EIVLTQSPGTLSLSPGERATLSCRASQTVTANYLAWYQQKPGQAPRLLIYGASKRATGIPDRFSGSGSGTDFTLSISRLEPEDFAVYYCQQYTTTPRTFGGGTKVEIK ), measured EC50 is 3.77

What the record says about C113 (antibody, V domains shown) VH: QVQLVESGGGVVQPGRSLRLSCAASGFTFSNFGMHWVRQAPGKGLEWVAVIWYDGSNKYYADSVKGRFTISRDNSKNTLYLQMNSLRAEDTAVYYCARGVNPDDILTGVDAFDIWGQGTMVTVSS VL: DIQMTQSPSTLSASVGDRVTITCRASQSMSSWLAWYQQKPGNAPKLLIYKASSLESGVPSRFSGSGSGTEFTLTISSLQPDDFATYYCQQHNSSPLTFGGGTKVEIK : EC50 is 6.93

Noted for C112 (antibody, V domains shown) VH: QVQLVESGGGVVQPGRSLRLSCAASGFTFSSHAMHWVRQAPGKGLEWVAVISYDGSNKYYADSVKGRFTISRDNSKNTLYLQMNSLRAEDTAVYYCAREDYYDSSGSFDYWGQGTLVTVSS VL: QSALTQPASVSGSPGQSITISCTGTSSDVGGYNYVSWYQQHPGKAPKLMIYDVSNRPSGVSNRFSGSKSGNTASLTISGLQAEDEADYYCSSYTSSSTWVFGGGTKLTVL : its EC50 reads 3.38

Recorded result, C143 (antibody, V domains shown) VH: EVQLVESGGGLVQPGGSLRLSCAASGFSVSTKYMTWVRQAPGKGLEWVSVLYSGGSDYYADSVKGRFTISRDNSKNALYLQMNSLRVEDTGVYYCARDSSEVRDHPGHPGRSVGAFDIWGQGTMVTVSS VL: QSALTQPASVSGSPGQSITISCTGTSNDVGSYTLVSWYQQYPGKAPKLLIFEGTKRSSGISNRFSGSKSGNTASLTISGLQGEDEADYYCCSYAGASTFVFGGGTKLTVL , EC50: 3.66

Query C161 (antibody, V domains shown) VH: QVQLQQWGAGLLKPSETLSLTCAVSGGSLSGFYWTWIRQPPGKGLEWIGETNHFGSTDYKPSLKSRVTISVDMSRNQFSLIMTSVTAADTAVYYCARKTLLFSDFSPGAFDIWGQGTMVTVSS VL: EIVLTQSPGTLSLSPGERATLSCRASQTLTANYLAWYQQKPGQAPRLLIYGASKRATGIPDRFSGSGSGTDFTLSISRLEPEDFAVYYCQQYGTTPRTFGGGTKVEI yields EC50 of 1.63
